target: Serotonin 3 (5-HT3) receptor (Homo sapiens) (UniProt P46098+A5X5Y0+O95264+Q70Z44+Q8WXA8); assay: In vitro 5-hydroxytryptamine 3 receptor activity in guinea pig ileum; type: tissue-based; details: Cavia porcellus, target entry is the homologue from another species
Entries annotated with measured Kb

Record Smiles: Nc1c(Cl)cc(C(=O)N[C@H]2CN3CCC2CC3)c2c1CCO2
Tested On: Serotonin 3 (5-HT3) receptor (Homo sapiens) (UniProt P46098+A5X5Y0+O95264+Q70Z44+Q8WXA8)
Kb [nM]: 33.9
--
Record Smiles: O=C(N[C@H]1CN2CCC1CC2)c1cc(Cl)cc2c1OCC2
Tested On: Serotonin 3 (5-HT3) receptor (Homo sapiens) (UniProt P46098+A5X5Y0+O95264+Q70Z44+Q8WXA8)
Kb [nM]: 38
--
Record Smiles: Nc1ccc(C(=O)N[C@@H]2CN3CCC2CC3)c2c1CCO2
Tested On: Serotonin 3 (5-HT3) receptor (Homo sapiens) (UniProt P46098+A5X5Y0+O95264+Q70Z44+Q8WXA8)
Kb [nM]: 44.6
--
Record Smiles: O=C(N[C@@H]1CN2CCC1CC2)c1cccc2c1OCC2
Tested On: Serotonin 3 (5-HT3) receptor (Homo sapiens) (UniProt P46098+A5X5Y0+O95264+Q70Z44+Q8WXA8)
Kb [nM]: 40.7
--
Record Smiles: O=C(N[C@@H]1CN2CCC1CC2)c1cc(Cl)cc2c1OCC2
Tested On: Serotonin 3 (5-HT3) receptor (Homo sapiens) (UniProt P46098+A5X5Y0+O95264+Q70Z44+Q8WXA8)
Kb [nM]: 21.8
--
Record Smiles: Nc1c(Cl)cc(C(=O)N[C@@H]2CN3CCC2CC3)c2c1CCO2
Tested On: Serotonin 3 (5-HT3) receptor (Homo sapiens) (UniProt P46098+A5X5Y0+O95264+Q70Z44+Q8WXA8)
Kb [nM]: 3.8

###

# key: entry, value: EC50
molecular target: 5-hydroxytryptamine receptor 4 (Rattus norvegicus, UniProt Q62758); test: In vitro relaxation of carbachol pre-contracted rat oesophageal TMM.
Sequence (Q62758 whole entry): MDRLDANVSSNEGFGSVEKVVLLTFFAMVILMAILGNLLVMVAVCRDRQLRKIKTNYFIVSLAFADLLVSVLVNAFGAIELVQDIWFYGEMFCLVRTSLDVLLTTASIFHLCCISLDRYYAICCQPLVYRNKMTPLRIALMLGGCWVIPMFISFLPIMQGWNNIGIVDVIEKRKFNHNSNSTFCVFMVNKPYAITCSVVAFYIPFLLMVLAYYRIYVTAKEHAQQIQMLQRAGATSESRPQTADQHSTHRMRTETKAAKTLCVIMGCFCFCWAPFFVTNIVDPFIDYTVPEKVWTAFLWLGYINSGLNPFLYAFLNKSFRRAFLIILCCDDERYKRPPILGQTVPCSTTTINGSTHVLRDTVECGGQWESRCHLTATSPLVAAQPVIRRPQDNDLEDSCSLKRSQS

Record Smiles: CCCC[N+]12CCC(CC1)[C@@H](NC(=O)c1cc(Cl)c(N)c3c1OCC3)C2
Endpoint Unit: µM
Reported Relation: =
EC50: 1.36
--
Record Smiles: Nc1c(Cl)cc(C(=O)OCCN2CCCCC2)c2c1CCO2
Endpoint Unit: µM
Reported Relation: =
EC50: 0.00202
--
Record Smiles: O=C(N[C@@H]1CN2CCC1CC2)c1cccc2c1OCC2
Endpoint Unit: µM
Reported Relation: >
EC50: 10
--
Record Smiles: COc1cc(N)c(Cl)cc1C(=O)N[C@@H]1CN2CCC1CC2
Endpoint Unit: µM
Reported Relation: =
EC50: 0.0559
--
Record Smiles: CCCCN1CCC(CNC(=O)c2cc(Cl)c(N)c3c2OCC3)CC1
Endpoint Unit: µM
Reported Relation: =
EC50: 0.00449
--
Record Smiles: Nc1ccc(C(=O)N[C@@H]2CN3CCC2CC3)c2c1CCO2
Endpoint Unit: µM
Reported Relation: >
EC50: 10

###

molecular target: Serotonin 3 (5-HT3) receptor (Rattus norvegicus, UniProt P35563+Q9JJ16); assay: Binding affinity at 5-hydroxytryptamine 3 receptor in rat entorhinal cortex by [3H]BRL-43694 displacement.
Sequence (P35563 whole entry): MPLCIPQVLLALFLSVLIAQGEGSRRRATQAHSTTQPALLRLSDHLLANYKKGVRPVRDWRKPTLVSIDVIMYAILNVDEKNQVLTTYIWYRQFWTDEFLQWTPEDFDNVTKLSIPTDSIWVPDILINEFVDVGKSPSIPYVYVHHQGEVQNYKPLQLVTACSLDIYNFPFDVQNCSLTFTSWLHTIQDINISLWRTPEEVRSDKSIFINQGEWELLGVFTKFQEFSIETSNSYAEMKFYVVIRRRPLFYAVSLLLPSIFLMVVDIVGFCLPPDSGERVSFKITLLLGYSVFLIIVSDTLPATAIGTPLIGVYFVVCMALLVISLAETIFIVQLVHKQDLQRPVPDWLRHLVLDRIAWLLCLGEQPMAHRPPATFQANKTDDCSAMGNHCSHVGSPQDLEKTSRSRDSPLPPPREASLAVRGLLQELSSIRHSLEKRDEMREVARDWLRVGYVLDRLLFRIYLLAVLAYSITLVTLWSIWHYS
Sequence (Q9JJ16 whole entry): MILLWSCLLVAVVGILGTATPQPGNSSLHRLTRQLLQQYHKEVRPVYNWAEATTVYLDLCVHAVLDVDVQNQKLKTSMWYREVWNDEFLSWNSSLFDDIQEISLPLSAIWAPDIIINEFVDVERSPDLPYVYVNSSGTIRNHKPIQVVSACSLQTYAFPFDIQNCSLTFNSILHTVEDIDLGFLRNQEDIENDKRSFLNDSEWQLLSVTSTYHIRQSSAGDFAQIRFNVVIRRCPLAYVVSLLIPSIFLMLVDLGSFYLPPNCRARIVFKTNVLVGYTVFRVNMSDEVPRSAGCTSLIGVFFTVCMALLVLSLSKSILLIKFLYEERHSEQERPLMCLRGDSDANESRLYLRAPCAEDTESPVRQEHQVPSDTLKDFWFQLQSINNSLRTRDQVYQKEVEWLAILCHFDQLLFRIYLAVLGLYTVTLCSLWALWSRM
Reported log10 of Ki by item:
Reported Endpoint: log10 of Ki (log10 of the value in nM)

Molecule: Nc1c(Cl)cc(C(=O)N[C@@H]2CN3CCC2CC3)c2c1CCO2
Test Value: -1.00

Molecule: O=C(N[C@H]1CN2CCC1CC2)c1cc(Cl)cc2c1OCC2
Test Value: 0.00

Molecule: Nc1c(Cl)cc(C(=O)OCCCN2CCCCC2)c2c1CCO2
Test Value: 3.07

Molecule: Nc1c(Cl)cc(C(=O)NCCN2CCCCC2)c2c1CCO2
Test Value: 2.58

Molecule: O=C(N[C@H]1CN2CCC1CC2)c1cccc2c1OCC2
Test Value: 1.15

Molecule: COc1cc(N)c(Cl)cc1C(=O)N[C@@H]1CN2CCC1CC2
Test Value: -0.96

Molecule: CCCC[N+]12CCC(CC1)[C@H](NC(=O)c1cc(Cl)c(N)c3c1OCC3)C2
Test Value: 1.86

Molecule: Nc1ccc(C(=O)N[C@@H]2CN3CCC2CC3)c2c1CCO2
Test Value: 0.00

Molecule: Nc1ccc(C(=O)N[C@H]2CN3CCC2CC3)c2c1CCO2
Test Value: 1.30

Molecule: Nc1c(Cl)cc(C(=O)OCCN2CCCCC2)c2c1CCO2
Test Value: 2.04

Molecule: CCCC[N+]12CCC(CC1)[C@@H](NC(=O)c1cc(Cl)c(N)c3c1OCC3)C2
Test Value: 1.00

Molecule: CCCCN1CCC(COC(=O)c2cc(Cl)c(N)c3c2OCC3)CC1
Test Value: 2.40

Molecule: Nc1c(Cl)cc(C(=O)N[C@H]2CN3CCC2CC3)c2c1CCO2
Test Value: 0.00

Molecule: O=C(N[C@@H]1CN2CCC1CC2)c1cccc2c1OCC2
Test Value: 0.15

Molecule: CCCCN1CCC(CNC(=O)c2cc(Cl)c(N)c3c2OCC3)CC1
Test Value: 1.76

Molecule: O=C(N[C@@H]1CN2CCC1CC2)c1cc(Cl)cc2c1OCC2
Test Value: 0.00

Molecule: CCN(CC)CCNC(=O)c1cc(Cl)c(N)cc1OC [METOCLOPRAMIDE]
Test Value: 2.69

###

target: 5-hydroxytryptamine receptor 4 (Rattus norvegicus); assay: In vitro relaxation of carbachol pre-contracted rat oesophageal TMM.
pEC50: −log10 of the molar value.
Measured pEC50 values are reported for all entries that follow.
Reported Endpoint: pEC50

Record Smiles: Nc1ccc(C(=O)N[C@H]2CN3CCC2CC3)c2c1CCO2
Reported Relation: <
Test Value: 6.00

Record Smiles: Nc1c(Cl)cc(C(=O)NCCN2CCCCC2)c2c1CCO2
Reported Relation: =
Test Value: 7.45

Record Smiles: Nc1c(Cl)cc(C(=O)NCCCN2CCCCC2)c2c1CCO2
Reported Relation: =
Test Value: 7.71

Record Smiles: CCCCN1CCC(COC(=O)c2cc(Cl)c(N)c3c2OCC3)CC1
Reported Relation: =
Test Value: 8.73

Record Smiles: Nc1c(Cl)cc(C(=O)N[C@H]2CN3CCC2CC3)c2c1CCO2
Reported Relation: =
Test Value: 6.71

Record Smiles: Nc1c(Cl)cc(C(=O)N[C@@H]2CN3CCC2CC3)c2c1CCO2
Reported Relation: =
Test Value: 7.73

Record Smiles: O=C(N[C@H]1CN2CCC1CC2)c1cc(Cl)cc2c1OCC2
Reported Relation: <
Test Value: 6.00

Record Smiles: Nc1c(Cl)cc(C(=O)OCCCN2CCCCC2)c2c1CCO2
Reported Relation: =
Test Value: 8.13

Record Smiles: CCCC[N+]12CCC(CC1)[C@H](NC(=O)c1cc(Cl)c(N)c3c1OCC3)C2
Reported Relation: =
Test Value: 8.07

Record Smiles: O=C(N[C@H]1CN2CCC1CC2)c1cccc2c1OCC2
Reported Relation: <
Test Value: 6.00

Record Smiles: O=C(N[C@@H]1CN2CCC1CC2)c1cc(Cl)cc2c1OCC2
Reported Relation: <
Test Value: 5.00

###

target: 5-hydroxytryptamine receptor 4 (Rattus norvegicus, UniProt Q62758)
pKi: −log10 of the molar value.
Form field: pKi (one value per entry).
Reported Endpoint: pKi

Record Smiles: Nc1c(Cl)cc(C(=O)NCCCN2CCCCC2)c2c1CCO2
Tested On: 5-hydroxytryptamine receptor 4 (Rattus norvegicus, UniProt Q62758)
Reported Endpoint: pKi
Reported Relation: =
Test Value: 8.02

Record Smiles: Nc1c(Cl)cc(C(=O)N[C@@H]2CN3CCC2CC3)c2c1CCO2
Tested On: 5-hydroxytryptamine receptor 4 (Rattus norvegicus, UniProt Q62758)
Reported Endpoint: pKi
Reported Relation: =
Test Value: 7.77

Record Smiles: CCCCN1CCC(COC(=O)c2cc(Cl)c(N)c3c2OCC3)CC1
Tested On: 5-hydroxytryptamine receptor 4 (Rattus norvegicus, UniProt Q62758)
Reported Endpoint: pKi
Reported Relation: =
Test Value: 9.89

Record Smiles: Nc1ccc(C(=O)N[C@H]2CN3CCC2CC3)c2c1CCO2
Tested On: 5-hydroxytryptamine receptor 4 (Rattus norvegicus, UniProt Q62758)
Reported Endpoint: pKi
Reported Relation: <
Test Value: 6.00

Record Smiles: Nc1c(Cl)cc(C(=O)NCCN2CCCCC2)c2c1CCO2
Tested On: 5-hydroxytryptamine receptor 4 (Rattus norvegicus, UniProt Q62758)
Reported Endpoint: pKi
Reported Relation: =
Test Value: 7.39

Record Smiles: Nc1ccc(C(=O)N[C@@H]2CN3CCC2CC3)c2c1CCO2
Tested On: 5-hydroxytryptamine receptor 4 (Rattus norvegicus, UniProt Q62758)
Reported Endpoint: pKi
Reported Relation: <
Test Value: 6.00

Record Smiles: Nc1c(Cl)cc(C(=O)OCCCN2CCCCC2)c2c1CCO2
Tested On: 5-hydroxytryptamine receptor 4 (Rattus norvegicus, UniProt Q62758)
Reported Endpoint: pKi
Reported Relation: =
Test Value: 8.35

Record Smiles: O=C(N[C@H]1CN2CCC1CC2)c1cccc2c1OCC2
Tested On: 5-hydroxytryptamine receptor 4 (Rattus norvegicus, UniProt Q62758)
Reported Endpoint: pKi
Reported Relation: <
Test Value: 5.00

Record Smiles: CCCC[N+]12CCC(CC1)[C@H](NC(=O)c1cc(Cl)c(N)c3c1OCC3)C2
Tested On: 5-hydroxytryptamine receptor 4 (Rattus norvegicus, UniProt Q62758)
Reported Endpoint: pKi
Reported Relation: =
Test Value: 8.72

Record Smiles: O=C(N[C@@H]1CN2CCC1CC2)c1cc(Cl)cc2c1OCC2
Tested On: 5-hydroxytryptamine receptor 4 (Rattus norvegicus, UniProt Q62758)
Reported Endpoint: pKi
Reported Relation: =
Test Value: 6.77

Record Smiles: Nc1c(Cl)cc(C(=O)OCCN2CCCCC2)c2c1CCO2
Tested On: 5-hydroxytryptamine receptor 4 (Rattus norvegicus, UniProt Q62758)
Reported Endpoint: pKi
Reported Relation: =
Test Value: 9.03

Record Smiles: O=C(N[C@@H]1CN2CCC1CC2)c1cccc2c1OCC2
Tested On: 5-hydroxytryptamine receptor 4 (Rattus norvegicus, UniProt Q62758)
Reported Endpoint: pKi
Reported Relation: <
Test Value: 6.00

Record Smiles: COc1cc(N)c(Cl)cc1C(=O)N[C@@H]1CN2CCC1CC2
Tested On: 5-hydroxytryptamine receptor 4 (Rattus norvegicus, UniProt Q62758)
Reported Endpoint: pKi
Reported Relation: =
Test Value: 6.88

Record Smiles: CCCC[N+]12CCC(CC1)[C@@H](NC(=O)c1cc(Cl)c(N)c3c1OCC3)C2
Tested On: 5-hydroxytryptamine receptor 4 (Rattus norvegicus, UniProt Q62758)
Reported Endpoint: pKi
Reported Relation: =
Test Value: 6.38

Record Smiles: CCCCN1CCC(CNC(=O)c2cc(Cl)c(N)c3c2OCC3)CC1
Tested On: 5-hydroxytryptamine receptor 4 (Rattus norvegicus, UniProt Q62758)
Reported Endpoint: pKi
Reported Relation: =
Test Value: 8.72

Record Smiles: O=C(N[C@H]1CN2CCC1CC2)c1cc(Cl)cc2c1OCC2
Tested On: 5-hydroxytryptamine receptor 4 (Rattus norvegicus, UniProt Q62758)
Reported Endpoint: pKi
Reported Relation: =
Test Value: 6.55

Record Smiles: Nc1c(Cl)cc(C(=O)N[C@H]2CN3CCC2CC3)c2c1CCO2
Tested On: 5-hydroxytryptamine receptor 4 (Rattus norvegicus, UniProt Q62758)
Reported Endpoint: pKi
Reported Relation: =
Test Value: 6.94
